tested_system: T1, recombinant human PD-L2 (human PD-L2 antigen) (human, UniProt Q9BQ51 20-219, limits assumed)
T1 construct: The Biacore analyte and the ELISA antigen are only called human PD-L2 antigen / recombinant hPD-L2; Whole entry named; also called hPD-L2; recombinant hPD-L2
T1 sequence (looked up): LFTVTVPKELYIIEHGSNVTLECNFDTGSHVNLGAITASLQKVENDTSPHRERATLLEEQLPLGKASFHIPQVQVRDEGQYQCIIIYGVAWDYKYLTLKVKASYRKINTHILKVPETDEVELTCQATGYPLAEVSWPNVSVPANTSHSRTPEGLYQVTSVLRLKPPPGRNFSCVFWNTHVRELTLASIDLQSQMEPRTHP
protocol_details: SPR (Biacore 8K), single cycle kinetics, antibody in culture supernatant, human PD-L2 antigen
We begin with a simple list: items and their reported koff.
// note: answer is a bare numeric in s⁻¹

binder	measured
VH6/VK2 (antibody, V domains shown, hIgG1 backbone, CHO expressed) VH: QVQLVQSGAEVKKPGSSVKVSCKASGYSFSNYFIEWVKQPPGKGLEWIGLNIPGSGGSNYAEKFKGRVTITADKSTSTAYMELSSLRSEDTAVYYCARRRLPPDWYFDVWGQGTTVTVSS VL: DVVMTQSPLSLPVTLGQPASISCRSSQSLVHSDGNTYLHWYQQKPGQPPKLLIYKVSNRFSGVPDRFSGSGSGTDFTLKISRVEAEDVGVYYCSQSTHVPWTFGGGTKVEIK	0.000128

Challenge: Which measured koff value corresponds to VH3/VK2 (antibody, V domains shown, hIgG1 backbone, CHO expressed) VH: QVQLVQSGAEVKKPGSSVKVSCKASGYAFSNYFIEWVKQPPGKGLEWIGLNIPGSGGSNYAEKFKGRVTITADKSTSTAYMELSSLRSEDSAVYFCARRRLPPDWYFDVWGQGTTVTVSS VL: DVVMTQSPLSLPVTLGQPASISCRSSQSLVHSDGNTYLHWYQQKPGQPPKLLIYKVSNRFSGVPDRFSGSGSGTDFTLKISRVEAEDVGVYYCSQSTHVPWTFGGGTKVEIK ?
Response given: 0.000132

Challenge: Which measured koff value corresponds to VH2/VK1 (antibody, V domains shown, hIgG1 backbone, CHO expressed) VH: QVQLVQSGAEVKKPGSSVKVSCKASGYAFSNYFIEWVKQPPGKGLEWIGLNIPGSGGSNYAEKFKGRATITADKSTSTAYMELSSLRSEDSAVYFCARRRLPPDWYFDVWGQGTTVTVSS VL: DVVMTQSPLSLPVTLGQPASISCRSSQSLVHSDGNTYLHWYQQKPGQPPKLLIYKVSNRFSGVPDRFSGSGSGTDFTLKISRVEAEDVGVYFCSQSTHVPWTFGGGTKVEIK ?
Response given: 0.000119

Challenge: Which measured koff value corresponds to VH0/VK1 (antibody, V domains shown, hIgG1 backbone, CHO expressed) VH: QVQLQQSGAELVRPGTSVKVSCKASGYAFSNYFIEWVKQRPGQGLEWIGLNIPGSGGSNYAEKFKGKATLTADKSSSTAYMQLSSLTSEDSAVYFCARRRLPPDWYFDVWGTGTTVTVSS VL: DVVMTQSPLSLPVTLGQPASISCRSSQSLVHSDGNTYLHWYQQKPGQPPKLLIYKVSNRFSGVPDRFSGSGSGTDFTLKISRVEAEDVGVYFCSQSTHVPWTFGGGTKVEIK ?
Response given: 9.88e-05

Challenge: Which measured koff value corresponds to VH2/VK2 (antibody, V domains shown, hIgG1 backbone, CHO expressed) VH: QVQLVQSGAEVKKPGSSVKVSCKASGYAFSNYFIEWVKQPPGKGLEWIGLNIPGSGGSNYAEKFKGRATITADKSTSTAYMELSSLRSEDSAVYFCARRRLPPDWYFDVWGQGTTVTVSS VL: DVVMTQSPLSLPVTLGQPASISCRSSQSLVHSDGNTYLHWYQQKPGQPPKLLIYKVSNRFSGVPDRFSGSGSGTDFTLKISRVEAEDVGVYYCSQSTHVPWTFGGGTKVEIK ?
Response given: 0.000122
